// provenance: patent US20050107959A1

- TEST_METHOD_NOTES: Differential scanning calorimetry (VP-DSC) of DSPC liposomes (MLVs) with drugs
- Format: physicochemical
- CONDITION: pH 7.0; heat capacity at phase transition peak; drug-to-lipid 1:5
PARAMETER_MEASURED: Cpmax
Give bare numbers.

// worked examples, Cpmax included
>>> recorded_number("CC[C@@]1(O)C(=O)OCc2c1cc1n(c2=O)Cc2c-1nc1ccccc1c2CCNC(C)C")
17.2
>>> recorded_number("CC[C@]1(O)C[C@H]2CN(CCc3c([nH]c4ccccc34)[C@@](C(=O)OC)(c3cc4c(cc3OC)N(C=O)[C@H]3[C@@](O)(C(=O)OC)[C@H](OC(C)=O)[C@]5(CC)C=CCN6CC[C@]43[C@@H]65)C2)C1")
6.81
>>> recorded_number("CC(=O)O[C@H]1C(=O)[C@@]2(C)[C@H]([C@H](OC(=O)c3ccccc3)[C@]3(O)C[C@H](OC(=O)[C@H](O)[C@@H](NC(=O)c4ccccc4)c4ccccc4)C(C)=C1C3(C)C)[C@]1(OC(C)=O)CO[C@@H]1C[C@@H]2O")
8.67

Here is the next item to consider.
[ask] Given COc1cccc2c1C(=O)c1c(O)c3c(c(O)c1C2=O)C[C@@](O)(C(=O)CO)C[C@@H]3O[C@H]1C[C@H](N)[C@H](O)[C@H](C)O1 , state its recorded Cpmax.
[reply] 16.3
